# experimental-target: recombinant human PLD1b (rhPLD1b) (Homo sapiens, UniProt Q13393)
# Construct: made in house; host or cells: Spodoptera frugiperda Sf9 cells, recombinant baculovirus (pACGHLT transfer vector)
# Sequence (Q13393 1-1036 isoform Q13393-2): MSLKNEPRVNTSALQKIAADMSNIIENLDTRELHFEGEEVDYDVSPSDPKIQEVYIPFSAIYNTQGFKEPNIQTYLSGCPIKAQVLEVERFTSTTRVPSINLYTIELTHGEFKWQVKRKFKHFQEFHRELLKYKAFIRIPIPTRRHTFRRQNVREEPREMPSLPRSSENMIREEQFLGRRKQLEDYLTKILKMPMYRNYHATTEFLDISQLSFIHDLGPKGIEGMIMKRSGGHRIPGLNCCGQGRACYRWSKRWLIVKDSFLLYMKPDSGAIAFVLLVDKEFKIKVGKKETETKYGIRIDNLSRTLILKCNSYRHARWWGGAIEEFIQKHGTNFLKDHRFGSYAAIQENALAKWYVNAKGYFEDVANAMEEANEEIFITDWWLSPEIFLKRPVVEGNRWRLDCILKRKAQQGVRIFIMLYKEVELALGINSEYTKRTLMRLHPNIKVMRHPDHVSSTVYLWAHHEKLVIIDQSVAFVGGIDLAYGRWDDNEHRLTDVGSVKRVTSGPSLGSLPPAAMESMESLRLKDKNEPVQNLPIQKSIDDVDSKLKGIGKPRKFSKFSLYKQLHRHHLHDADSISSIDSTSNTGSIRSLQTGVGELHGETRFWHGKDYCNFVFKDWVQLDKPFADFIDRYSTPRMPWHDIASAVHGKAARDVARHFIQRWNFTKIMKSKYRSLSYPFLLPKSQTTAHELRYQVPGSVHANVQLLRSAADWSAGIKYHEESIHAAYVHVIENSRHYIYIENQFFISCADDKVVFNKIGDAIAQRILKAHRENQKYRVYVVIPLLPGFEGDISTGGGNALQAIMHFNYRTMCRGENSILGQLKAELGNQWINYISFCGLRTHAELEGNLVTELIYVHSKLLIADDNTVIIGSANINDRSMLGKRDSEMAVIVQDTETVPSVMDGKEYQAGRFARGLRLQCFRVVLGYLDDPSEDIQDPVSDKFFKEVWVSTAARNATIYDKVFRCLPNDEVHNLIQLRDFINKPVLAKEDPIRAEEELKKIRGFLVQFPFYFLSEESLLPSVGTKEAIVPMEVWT
# assay-details: Recombinant human PLD1b activity (choline release from PC), enzyme kinetics with PSDP
# Type: biochemical
# condition-notes: rhPLD1b 0.3 u/reaction, 37° C.
measured-metric: pKi
pKi is a log-scale quantity: -log10 of the concentration expressed in molar.

Input CC(C)=CCC/C(C)=C/CC/C(C)=C/C1C(COP(=O)(O)OP(=O)(O)O)C1(C)CC/C=C(\C)CCC=C(C)C (stereo in doubt) [Presqualene diphosphate, presqualene diphosphate] . Output pKi: 8.22
